meta.source: paper PMC11992225

Test system: non-growing UPEC CFT073
Assay: Dose-dependent killing analysis (CFU spot-plating) of stationary-phase UPEC
Assay type: cell-based, Escherichia coli
Settings: 24 h treatment of stationary phase culture
Quantity Measured: bactericidal activity against non-growing UPEC (CFU counting)

>  <Smiles Repr>
CO[C@H]1/C=C/O[C@@]2(C)Oc3c(C)c(O)c4c(c3C2=O)C2=NC3(CCN(CC(C)C)CC3)NC2=C(NC(=O)/C(C)=C\C=C\[C@H](C)[C@H](O)[C@@H](C)[C@@H](O)[C@@H](C)[C@H](OC(C)=O)[C@@H]1C)C4=O

>  <Result>
did not kill

$$$$
>  <Smiles Repr>
CC[C@H]1OC(=O)[C@@](C)(F)C(=O)[C@H](C)[C@@H](O[C@@H]2O[C@H](C)C[C@H](N(C)C)[C@H]2O)[C@](C)(OC)C[C@@H](C)C(=O)[C@H](C)[C@H]2N(CCCCn3cc(-c4cccc(N)c4)nn3)C(=O)O[C@]12C

>  <Result>
did not kill

$$$$

---

Test system: non-growing P. aeruginosa DSM1117
Assay: Dilution-regrowth assay (OD600, start-growth-time) on stationary-phase P. aeruginosa
Type: cell-based, Pseudomonas aeruginosa
Conditions: Pseudomonas aeruginosa, DSM1117; P. aeruginosa; regrowth delay of non-growing bacteria, 1:4 CA-MHB pH 7.4, 24 h treatment, OD600 8 h after dilution; read-out: EC50
pEC50: −log10 of the molar value.
Could you label it true if measured pEC50 is 6 or higher, and false otherwise?

# count of solved cases: 5
>  <Molecule>
CN1CCN(c2cc3c(cc2F)c(=O)c(C(=O)O)cn3-c2ccc(F)cc2)CC1

>  <Assigned Category>
false

$$$$
>  <Molecule>
N[C@@H]1CCCCN(c2c(F)cc3c(=O)c(C(=O)O)cn(C4CC4)c3c2Cl)C1

>  <Assigned Category>
true

$$$$
>  <Molecule>
C[C@@H]1CN(c2c(F)c(N)c3c(=O)c(C(=O)O)cn(C4CC4)c3c2F)C[C@H](C)N1

>  <Assigned Category>
true

$$$$
>  <Molecule>
Cc1oc(=O)oc1CN1CCN(c2cc3c(cc2F)c(=O)c(C(=O)O)c2n3C(C)S2)CC1 (stereo not drawn)

>  <Assigned Category>
true

$$$$
>  <Molecule>
CC[C@H]1OC(=O)[C@@](C)(F)C(=O)[C@H](C)[C@@H](O[C@@H]2O[C@H](C)C[C@H](N(C)C)[C@H]2O)[C@](C)(OC)C[C@@H](C)C(=O)[C@H](C)[C@H]2N(CCCCn3cc(-c4cccc(N)c4)nn3)C(=O)O[C@]12C

>  <Assigned Category>
true

$$$$

### Prompt Hello, I need to know if COc1c(N2CCNC(C)C2)c(F)cc2c(=O)c(C(=O)O)cn(C3CC3)c12 (stereo not drawn) has measured pEC50 not below 6. Thanks!
### Response true

### Prompt Hello, I need to know if CCCCCCCCN=c1ccn(CCCCCCCCCCn2ccc(=NCCCCCCCC)cc2)cc1 has measured pEC50 not below 6. Thanks!
### Response false

### Prompt Hello, I need to know if CN1C[C@@H]2C[C@H]1CN2c1cc2c(cc1F)c(=O)c(C(=O)O)cn2C1CC1 has measured pEC50 not below 6. Thanks!
### Response true

---

System: non-growing S. aureus DSM2569
Test: Dilution-regrowth assay (OD600, start-growth-time) on stationary-phase S. aureus
Assay type: cell-based, Staphylococcus aureus
Settings: Staphylococcus aureus, DSM2569; S. aureus; regrowth delay of non-growing bacteria, 1:4 CA-MHB pH 7.4, 24 h treatment, OD600 8 h after dilution; read-out: EC50
Strictly below 0.3 µM in EC50: t. Otherwise: f.

>  <Compound>
[H]/N=C(\N/C(=N/[H])NCCCCCCNC(=N)NC(=N)Nc1ccc(Cl)cc1)Nc1ccc(Cl)cc1 [Chlorhexidine]

>  <Assigned Category>
f

$$$$
>  <Compound>
O=C(O)c1cn(-c2ccc(F)cc2)c2cc(N3CCNCC3)c(F)cc2c1=O [Sarafloxacin]

>  <Assigned Category>
f

$$$$
>  <Compound>
CO[C@H]1/C=C/O[C@@]2(C)Oc3c(C)c(O)c4c(O)c(c(/C=N/N5CCN(C6CCCC6)CC5)c(O)c4c3C2=O)NC(=O)/C(C)=C\C=C\[C@H](C)[C@H](O)[C@@H](C)[C@@H](O)[C@@H](C)[C@H](OC(C)=O)[C@@H]1C [Rifapentine]

>  <Assigned Category>
t

$$$$
>  <Compound>
COc1c(N2C[C@@H]3CCCN[C@@H]3C2)c(F)cc2c(=O)c(C(=O)O)cn(C3CC3)c12 [Moxifloxacin]

>  <Assigned Category>
f

$$$$

### Prompt Report whether reported EC50 is lower than 0.3 µM (strictly) for CO[C@H]1/C=C/O[C@@]2(C)Oc3c(C)c(O)c4c(O)c(c(/C=N/N5CCN(C)CC5)c(O)c4c3C2=O)NC(=O)/C(C)=C\C=C\[C@H](C)[C@H](O)[C@@H](C)[C@@H](O)[C@@H](C)[C@H](OC(C)=O)[C@@H]1C [Rifampicin]
### Response t

### Prompt Report whether reported EC50 is lower than 0.3 µM (strictly) for NC1CCN(c2nc3c(cc2F)c(=O)c(C(=O)O)cn3-c2ccc(F)cc2F)C1 (stereo not drawn) [Tosufloxacin]
### Response f
